Target: human RIPK1 (Homo sapiens, UniProt Q13546)
Construct: ITDRF values of half-maximal stabilization of endogenous RIPK1; endogenous in cells
Sequence (Q13546 1-671): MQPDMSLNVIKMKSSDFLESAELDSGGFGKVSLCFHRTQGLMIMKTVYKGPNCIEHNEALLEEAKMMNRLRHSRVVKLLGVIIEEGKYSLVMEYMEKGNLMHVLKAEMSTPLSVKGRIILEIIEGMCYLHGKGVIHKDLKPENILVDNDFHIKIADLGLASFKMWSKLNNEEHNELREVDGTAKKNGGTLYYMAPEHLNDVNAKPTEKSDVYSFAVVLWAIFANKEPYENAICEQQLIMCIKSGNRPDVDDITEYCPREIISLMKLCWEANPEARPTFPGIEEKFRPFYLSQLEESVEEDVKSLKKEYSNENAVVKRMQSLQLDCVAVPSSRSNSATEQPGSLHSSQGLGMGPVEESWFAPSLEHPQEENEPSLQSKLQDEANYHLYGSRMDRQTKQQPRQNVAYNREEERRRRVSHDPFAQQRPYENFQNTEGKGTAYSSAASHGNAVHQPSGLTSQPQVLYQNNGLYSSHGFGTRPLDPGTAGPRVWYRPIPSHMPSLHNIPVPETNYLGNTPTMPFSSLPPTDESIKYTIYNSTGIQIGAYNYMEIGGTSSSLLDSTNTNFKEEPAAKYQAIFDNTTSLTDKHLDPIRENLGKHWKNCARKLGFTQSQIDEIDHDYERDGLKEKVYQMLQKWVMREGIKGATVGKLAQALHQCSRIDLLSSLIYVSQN
Assay: CETSA (Tagg curves and ITDRF) for human RIPK1 with HT-29 cells
Settings: compound 30 min, 47 °C for 8 min denature, independent runs reported, read-out: human_ITDRF-CETSA (EC50)
property: EC50 (nM)
Could you give me the number in nM? Just the number is fine.

input: Given the compound CN1C(=O)C(Cc2c[nH]c3ccccc23)NC1=S (stereo not shown) [Nec-1, Necrostatin-1, reference compound] , what is its reported EC50?
output: 1100

----------
Each entry below carries its recorded IC50.
tested on: phospho (Ser-345)-MLKL; assay: Mouse phospho (Ser-345)-MLKL ELISA assay in L929 cells; assay type: cell-based; details: read-out: L929-pMLKL (IC50)
Number plus unit, in that order.

smiles_data=CN1C(=O)[C@@H](N2CCc3cn(Cc4ccccc4F)nc3C2=O)COc2cc(C#N)ccc21 endpoint_result="66 nM"

input: Given the compound CNC(=O)c1ccc2c(c1)OC[C@H](N1CCc3c(nn(Cc4ccccc4)c3Cl)C1=O)C(=O)N2C , what is its reported IC50?
output: 16 nM

Every entry's value here was drawn from paper PMC5638916.
